Reference source for all entries: patent US8999957B2

target: ERK protein (Mus musculus); assay: TdF (Temperature Dependence Fluorescence, thermal shift) assay for ERK; format: binding; details: 3 μM ERK protein, uncertainty estimated ±50%, read-out: Kd TdF
Sequence (P63085 2-358 limits assumed): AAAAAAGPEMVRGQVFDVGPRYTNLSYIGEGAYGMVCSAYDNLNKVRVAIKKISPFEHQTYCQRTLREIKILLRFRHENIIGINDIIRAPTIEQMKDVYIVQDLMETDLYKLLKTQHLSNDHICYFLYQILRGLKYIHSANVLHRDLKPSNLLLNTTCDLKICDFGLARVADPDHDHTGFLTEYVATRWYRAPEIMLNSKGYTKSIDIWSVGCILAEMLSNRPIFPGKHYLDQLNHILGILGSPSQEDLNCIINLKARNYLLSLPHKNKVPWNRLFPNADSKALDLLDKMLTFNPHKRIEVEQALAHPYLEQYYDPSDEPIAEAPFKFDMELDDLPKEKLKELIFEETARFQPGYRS
MEASUREMENT NAME: pKd
Conceptually, pKd converts a concentration in mol/L into minus its log10.

input: What value of pKd has been recorded for this entry: CC1CC(NC(=O)c2ccc3[nH]nc(-c4ccncc4)c3c2)CN(Cc2ccccc2F)C1 (centres unmarked)
output: 10.28

input: Sample O=C(NC1CCCN(Cc2ccccc2F)C1)c1ccc2[nH]nc(-c3ccc4c(c3)CCO4)c2c1 (centres unmarked) — what was its pKd?
output: 8.59

input: Name the reported pKd value associated with the compound COC(=O)C1CC(NC(=O)c2ccc3[nH]nc(-c4ccnc(C)c4)c3c2)CN(Cc2c(F)cccc2OC)C1 (centres unmarked)
output: 8.42

input: Entry under review: COc1cccc(F)c1CN1C[C@@H](NC(=O)c2ccc3[nH]nc(-c4ccc5nccn5c4)c3c2)CCC1=O . Reported pKd?
output: 7.75

input: Any idea what its pKd is? The compound is COc1cccc(F)c1CN1C[C@@H](NC(=O)c2ccc3[nH]nc(-c4ccnc(C)c4)c3c2)CCC1=O
output: 8.39

input: What value of pKd has been reported for the following compound? Cc1cc(-c2n[nH]c3ccc(C(=O)N[C@@H]4CCCN(Cc5c(C)cccc5C)C4)cc23)ccn1
output: 9.89

input: Need pKd of Cc1cc(-c2n[nH]c3ccc(C(=O)NC4CCCN(Cc5ncccn5)C4)cc23)ccn1 (centres unmarked) , thanks.
output: 6.89

input: Consider the compound shown here: COc1cccc(F)c1CN1CCC[C@@H](NC(=O)c2ccc3[nH]nc(-c4ccc5occc5c4)c3c2)C1 What is its recorded pKd?
output: 9.68

input: Give its pKd value. Item: CCn1cc(-c2n[nH]c3ccc(C(=O)N[C@@H]4CCCN(Cc5c(F)cccc5OC)C4)cc23)cn1
output: 8.80

input: What value of measured pKd is listed for COc1cccc(F)c1CN1C[C@@H](C)C[C@@H](NC(=O)c2ccc3[nH]nc(-c4ccc5nn(C)cc5c4)c3c2)C1 ?
output: 10.70

input: Can you look up the measured pKd of O=C(NC1CN(C(=O)OCc2ccccc2)CCNC1=O)c1ccc2[nH]nc(-c3ccncc3)c2c1 (centres unmarked) for me?
output: 6.54

input: Please look up its pKd: O=C(NC1CCCN(Cc2ccccc2)C1)c1ccc2[nH]nc(-c3ccncc3)c2c1 (centres unmarked)
output: 9.22

input: Would you kindly share the measured pKd for Cc1cc(-c2n[nH]c3ccc(C(=O)N[C@@H]4CCCN(Cc5ccncn5)C4)cc23)ccn1 ?
output: 7.69

input: Find the recorded pKd belonging to COc1cccc(F)c1CN1CCC[C@@H](NC(=O)c2ccc3[nH]nc(-c4ccc5cn[nH]c5c4)c3c2)C1 and report it.
output: 9.57

input: Which pKd value belongs to CCCOc1ccccc1CN1CCC[C@@H](NC(=O)c2ccc3[nH]nc(-c4ccnc(C)c4)c3c2)C1 ?
output: 8.76

input: Requested field: pKd. Item: COc1cccc(F)c1CN1C[C@H](C)C[C@@H](NC(=O)c2ccc3[nH]nc(-c4ccc5nccn5c4)c3c2)C1
output: 10.52

input: Quick check: pKd of CC(C)Oc1ccc(-c2n[nH]c3ccc(C(=O)NC4CCCN(Cc5ccccc5F)C4)cc23)cn1 (centres unmarked) ?
output: 8.54
